test: Half life in rat at 1 mg/kg, iv; assay type: ADME, organism-based; conditions: in vivo
reportedEndpoint: half-life

Look up half-life: COc1nc(C2=NOC(C3CC3)C(c3ccc(Cl)cc3)N2)ccc1-n1cnc(C)c1 (stereo unspecified)
8.7 h

====

assay: Volume of distribution at steady state in rat at 1 mg/kg, iv; format: ADME, organism-based; details: in vivo, read-out: Vdss
reportedEndpoint: Vd (L/kg)
Give just the numeric value; L/kg need not be written.

Look up Vd: COc1nc(C2=NOC(C3CC3)C(c3ccc(Cl)cc3)N2)ccc1-n1cnc(C)c1 (stereo unspecified)
2.4

====

test: Apparent permeability across apical to basolateral side in MDCK-MDR1 cells; format: ADME, cell-based, Canis lupus familiaris; conditions: dog
reportedEndpoint: Papp A→B (×10⁻⁶ cm/s)
Give just the numeric value; ×10⁻⁶ cm/s need not be written.

Look up Papp A→B: COc1nc(C2=NOC(C3CC3)C(c3ccc(Cl)cc3)N2)ccc1-n1cnc(C)c1 (stereo unspecified)
34

Origin of values: ChEMBL document CHEMBL4837257
